test system: M. smegmatis; test: Microdilution broth resazurin assay, MIC; format: cell-based, Mycolicibacterium smegmatis; conditions: Mycolicibacterium smegmatis, read-out: Antimycobacterial Activity MIC M. smeg.
Reported MIC is given for each of the following compounds.

Cc1nc2cc(Cl)ccc2c(=O)n1/N=C/c1cccc(Cl)c1 : ≥ 62.5 mg/L
Cc1nc2cc(Cl)ccc2c(=O)n1/N=C/c1cccc([N+](=O)[O-])c1 : ≥ 62.5 mg/L

Need MIC of `COc1cccc(Cn2c(C)nc3cc(Cl)ccc3c2=O)c1` , thanks.
≥ 125 mg/L

Returns the measured MIC for the input compound. Input: `Cc1nc2cc(Cl)ccc2c(=O)n1/N=C/c1cccc(Br)c1`
≥ 31.2 mg/L

# query: MIC of entry `Cc1nc2cc(Cl)ccc2c(=O)n1/N=C/c1ccccc1O`
≥ 31.2 mg/L

I'd like to know its MIC. The compound in question is `Cc1nc2cc(Cl)ccc2c(=O)n1/N=C/c1cccnc1`
≥ 31.2 mg/L

MIC for `Cc1nc2cc(Cl)ccc2c(=O)n1/N=C/c1ccc(Cl)cc1` ?
≥ 15.6 mg/L

Recorded MIC of `COc1cccc(/C=N/n2c(C)nc3cc(Cl)ccc3c2=O)c1` , please.
≥ 62.5 mg/L
